Ref: paper PMC8269107

test system: S. aureus PCM 2054; assay: MIC, broth microdilution; type: cell-based, Staphylococcus aureus; settings: S. aureus PCM 2054, standard Mueller-Hinton broth, 24 h
Where a SMILES comes first, the peptide text is derived from it. [ ]: non-standard residue; d: D form. AEEA = NCCOCCOCC(=O)O; βAla = NCCC(=O)O
Measurement label: MIC100

Compound	Data value
CC[C@H](C)[C@H](NC(=O)COCCOCCNC(=O)[C@H](Cc1c[nH]cn1)NC(=O)CCN)C(=O)N[C@@H](CCCCN)C(=O)N[C@@H](CCCCN)C(=O)N[C@H](C(=O)N[C@@H](CC(C)C)C(=O)N[C@@H](CO)C(=O)N[C@@H](CCCCN)C(=O)N[C@H](C(=O)N[C@@H](CCCCN)C(=O)N[C@@H](CCCCN)C(=O)N[C@@H](CC(C)C)C(=O)N[C@@H](CC(C)C)C(N)=O)[C@@H](C)CC)[C@@H](C)CC [CAR-PEG-DK5] (H-[βAla]H[AEEA]IKKILSKIKKLL-NH2; N-terminus and C-terminus assumed)	>50 µg/mL

====

tested on: primary fibroblasts; test: Cytotoxicity, MTT assay; format: cell-based, human; conditions: fibroblasts, MTT, 24 h, 1 to 50 µg/mL
Where a SMILES comes first, the peptide text is derived from it. [ ]: non-standard residue; d: D form. The star is where a group is joined. Pentanoyl = CCCCC(=O)*; Ahx = NCCCCCC(=O)O

Compound	effect on cell viability (in words)
CCCCC(=O)N[C@H](C(=O)N[C@@H](CCCCN)C(=O)N[C@@H](CCCCN)C(=O)N[C@H](C(=O)N[C@@H](CC(C)C)C(=O)N[C@@H](CO)C(=O)N[C@@H](CCCCN)C(=O)N[C@H](C(=O)N[C@@H](CCCCN)C(=O)N[C@@H](CCCCN)C(=O)N[C@@H](CC(C)C)C(=O)N[C@@H](CC(C)C)C(N)=O)[C@@H](C)CC)[C@@H](C)CC)[C@@H](C)CC [Compound C5-DK5] (Pentanoyl-IKKILSKIKKLL-NH2)	moderately toxic
CC[C@H](C)[C@H](NC(=O)CCCCCN)C(=O)N[C@@H](CCCCN)C(=O)N[C@@H](CCCCN)C(=O)N[C@H](C(=O)N[C@@H](CC(C)C)C(=O)N[C@@H](CO)C(=O)N[C@@H](CCCCN)C(=O)N[C@H](C(=O)N[C@@H](CCCCN)C(=O)N[C@@H](CCCCN)C(=O)N[C@@H](CC(C)C)C(=O)N[C@@H](CC(C)C)C(N)=O)[C@@H](C)CC)[C@@H](C)CC [AHX-DK5] (H-[Ahx]IKKILSKIKKLL-NH2)	moderately toxic

====

experiment: Serum stability in 25% human serum (RP-UPLC); conditions: male, amount of the intact compound, after 5 h of incubation in 25% human serum, 37 °C
Where a SMILES comes first, the peptide text is derived from it. [ ]: non-standard residue; d: D form. The star is where a group is joined. Pentanoyl = CCCCC(=O)*; AEEA = NCCOCCOCC(=O)O; βAla = NCCC(=O)O
We begin with a simple list: items and their reported remaining at 5 h, 75 µg/mL.
Measurement label: remaining at 5 h, 75 µg/mL

Molecule	Data value
CCCCC(=O)NCCC(=O)N[C@@H](Cc1c[nH]cn1)C(=O)NCCOCCOCC(=O)N[C@H](C(=O)N[C@@H](CCCCN)C(=O)N[C@@H](CCCCN)C(=O)N[C@H](C(=O)N[C@@H](CC(C)C)C(=O)N[C@@H](CO)C(=O)N[C@@H](CCCCN)C(=O)N[C@H](C(=O)N[C@@H](CCCCN)C(=O)N[C@@H](CCCCN)C(=O)N[C@@H](CC(C)C)C(=O)N[C@@H](CC(C)C)C(N)=O)[C@@H](C)CC)[C@@H](C)CC)[C@@H](C)CC [C5-CAR-PEG-DK5] ({Pentanoyl-βAla}-H[AEEA]IKKILSKIKKLL-NH2)	77%
CCCCC(=O)N[C@H](C(=O)N[C@@H](CCCCN)C(=O)N[C@@H](CCCCN)C(=O)N[C@H](C(=O)N[C@@H](CC(C)C)C(=O)N[C@@H](CO)C(=O)N[C@@H](CCCCN)C(=O)N[C@H](C(=O)N[C@@H](CCCCN)C(=O)N[C@@H](CCCCN)C(=O)N[C@@H](CC(C)C)C(=O)N[C@@H](CC(C)C)C(N)=O)[C@@H](C)CC)[C@@H](C)CC)[C@@H](C)CC [Compound C5-DK5] (Pentanoyl-IKKILSKIKKLL-NH2)	46.2%
